# system_name: T1, recombinant human cardiac troponin T (human, UniProt P45379 2-298)
# T1 construct: In the ECL assay the cTnT came from the Troponin T hs CalSet calibrator; also called cTnT; TnT
# assay_info: SPR (Biacore T200, 37 C), Fab captured, cTnT analyte
# Method: Detailed kinetic investigations were performed at 37° C. on a GE Healthcare T200 instrument. A Biacore CM-5 series S sensor was mounted into the instrument and was preconditioned according to the manufacturer's instructions. The system buffer was HBS-ET (10 mM HEPES (pH 7.4), 150 mM NaCl, 1 mM EDTA, 0.05% (w/v) Tween® 20). The sample buffer was the system buffer supplemented with 1 mg/ml CMD (Carboxymethyldextran, Fluka). […]
Below, each of the binders is paired with its reported MR (Molar Ratio) value.
// no unit string in output, number only

Exercise: MR (Molar Ratio) lookup needed for anti-cTnT Fab mutant 4 (Y34F, F60W, Y104F) (Fab, V domains shown, also called combination 4) VH: EVQLQQSGPELVKPGASVKMSCKASGYTFTDYFMKWVKQSHGKSLEWIGDINPNNGETWYNQKFKDKATLTVDKSSSTAYMQLNSLTSEDSAVYYCATRVFDFWGQGTTLTVSS VL: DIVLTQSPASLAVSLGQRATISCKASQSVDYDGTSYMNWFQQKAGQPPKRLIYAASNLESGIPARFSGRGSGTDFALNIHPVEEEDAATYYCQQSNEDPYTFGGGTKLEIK , thanks.
Solution: 0.7

Next up:
Exercise: MR (Molar Ratio) lookup needed for anti-cTnT Fab mutant 8 (Y34F, V101Y + Y104F) (Fab, V domains shown, also called combination 8) VH: EVQLQQSGPELVKPGASVKMSCKASGYTFTDYFMKWVKQSHGKSLEWIGDINPNNGETFYNQKFKDKATLTVDKSSSTAYMQLNSLTSEDSAVYYCATRYFDFWGQGTTLTVSS VL: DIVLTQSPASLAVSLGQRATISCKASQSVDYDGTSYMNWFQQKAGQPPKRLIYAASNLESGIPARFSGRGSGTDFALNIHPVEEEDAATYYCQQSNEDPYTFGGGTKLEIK , thanks.
Solution: 0.7
